Target: L-glutaminase (Glut) from Aspergillus oryzae EG-RE9
Construct: gene gtaA; native extracellular enzyme purified from culture filtrate (ammonium sulfate, DEAE-cellulose, Sephadex G-200); 65 kDa by SDS-PAGE
Test: residual activity after preincubation, ammonia release (Nessler)
Assay type: biochemical
Settings: 0.1 M phosphate pH 7.0, 20 min preincubation at 37 °C; group-specific modifier of His; covalent
pIC50: −log10 of the molar value.

{"COMPOUND": "CCOC(=O)OC(=O)OCC [diethyl pyrocarbonate]", "pIC50": 2.15}

* * *

Target: L-glutaminase (Glut) from Aspergillus oryzae EG-RE9
Construct: gene gtaA; native extracellular enzyme purified from culture filtrate (ammonium sulfate, DEAE-cellulose, Sephadex G-200); 65 kDa by SDS-PAGE
Assay: residual activity after preincubation, ammonia release (Nessler)
Type: biochemical
Conditions: 0.1 M phosphate pH 7.0, 20 min preincubation at 37 °C; group-specific modifier of Trp; covalent
Description: residual activity after preincubation, ammonia release (Nessler) on L-glutaminase (Glut) from Aspergillus oryzae EG-RE9 | The IC50 of BD, NBS, DEPC, and NEM for A. oryzae L-glutaminase were […]

{"COMPOUND": "O=C1CCC(=O)N1Br [N-bromosuccinimide]", "UNIT_SPEC": "mM", "IC50": 5.7}

* * *

Molecular target: L-glutaminase (Glut) from Aspergillus oryzae EG-RE9
Construct: gene gtaA; native extracellular enzyme purified from culture filtrate (ammonium sulfate, DEAE-cellulose, Sephadex G-200); 65 kDa by SDS-PAGE
Assay: residual activity after preincubation, ammonia release (Nessler)
Format: biochemical
Conditions: 0.1 M phosphate pH 7.0, 20 min preincubation at 37 °C; group-specific modifier of Arg; covalent
METRIC_NAME: IC50 (mM)

{"SMILES_RECORD": "CC(=O)C(C)=O", "TARGET_OF_ASSAY": "L-glutaminase (Glut) from Aspergillus oryzae EG-RE9", "MEAS_VALUE": 6.6}

* * *

Biological target: L-glutaminase (Glut) from Aspergillus oryzae EG-RE9
Construct: gene gtaA; native extracellular enzyme purified from culture filtrate (ammonium sulfate, DEAE-cellulose, Sephadex G-200); 65 kDa by SDS-PAGE
Assay: residual activity after preincubation, ammonia release (Nessler)
Type: biochemical
Conditions: 0.1 M phosphate pH 7.0, 20 min preincubation at 37 °C; group-specific modifier of Cys; covalent
pIC50: −log10 of the molar value.

{"COMPOUND": "CCN1C(=O)C=CC1=O [N-ethylmaleimide]", "TARGET_OF_ASSAY": "L-glutaminase (Glut) from Aspergillus oryzae EG-RE9", "pIC50": 2.32}
